Measured values drawn from patent US20230226016A1 for this set.

Biological target: fibrils of recombinant tau40 (Homo sapiens)
Sequence (P10636 1-441 isoform P10636-8): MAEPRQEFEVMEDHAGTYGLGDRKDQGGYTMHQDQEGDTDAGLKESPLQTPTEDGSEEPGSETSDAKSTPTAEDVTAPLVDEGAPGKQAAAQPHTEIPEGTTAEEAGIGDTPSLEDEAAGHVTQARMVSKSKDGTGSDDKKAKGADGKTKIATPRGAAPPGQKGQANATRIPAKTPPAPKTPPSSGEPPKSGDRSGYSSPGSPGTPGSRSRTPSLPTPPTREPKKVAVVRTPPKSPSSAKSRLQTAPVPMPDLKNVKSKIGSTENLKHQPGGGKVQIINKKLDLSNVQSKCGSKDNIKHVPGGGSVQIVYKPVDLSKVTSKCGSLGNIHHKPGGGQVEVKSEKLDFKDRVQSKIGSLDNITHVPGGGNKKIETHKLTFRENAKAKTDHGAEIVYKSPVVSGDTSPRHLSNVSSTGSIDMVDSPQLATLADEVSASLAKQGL
Experiment: EGCG dose dependence on seeding in tau biosensor cells, fibrils of recombinant tau40 as seeds

molecule: O=C(O[C@@H]1Cc2c(O)cc(O)cc2O[C@@H]1c1cc(O)c(O)c(O)c1)c1cc(O)c(O)c(O)c1 [EGCG, (−)-epigallocatechin gallate]
quantityUnit: nM
IC50: 400

###

Target: recombinant tau-K18+ fibrils (Homo sapiens)
Experiment: Isothermal titration calorimetry (ITC)
Conditions: 750 μM EGCG into 75 μM fibrils, 1 site binding model; read-out: affinity (ITC)
pKd: −log10 of the molar value.

molecule: O=C(O[C@@H]1Cc2c(O)cc(O)cc2O[C@@H]1c1cc(O)c(O)c(O)c1)c1cc(O)c(O)c(O)c1 [EGCG, (−)-epigallocatechin gallate]
targetSystem: recombinant tau-K18+ fibrils (Homo sapiens)
pKd: 5.80
